# Method summary: PK protocol, intravenous administration
# Assay type: in vivo, male Sprague Dawley rats
# Run conditions: male, Sprague Dawley, rat, plasma, dose (mg/kg)
Structures can show the parent of a compound that is named as a salt.
Reported metric: AUC (ng·h/mL)

Consider the reported AUC for these compounds:
Request: Annotate the compound CN(C)Cc1cc(S(=O)(=O)NC(=O)Nc2c3c(cc4c2CCC4)CCC3)nn1C [Example 94] with its measured AUC.
Response: 4700

Request: Annotate the compound CN(C)Cc1cc(S(=O)(=O)NC(=O)Nc2c3c(cc4c2CCC4)CCC3)nn1C1CC1 [Example 7] with its measured AUC.
Response: 3480

Request: Annotate the compound CN(C)CCn1nc(S(=O)(=O)NC(=O)Nc2c3c(cc4c2CCC4)CCC3)cc1C(C)(C)O [Example 4] with its measured AUC.
Response: 3780

Request: Annotate the compound CN(C)CCn1nc(S(=O)(=O)NC(=O)Nc2c3c(cc4c2CCC4)CCC3)cc1CN(C)C [Example 3] with its measured AUC.
Response: 1130

Request: Annotate the compound Cn1nc(S(=O)(=O)NC(=O)Nc2c3c(cc4c2CCC4)CCC3)cc1CN1CCC1 [Example 86, Sodium Salt] with its measured AUC.
Response: 4400

[A] CCn1nc(S(=O)(=O)NC(=O)Nc2c3c(cc4c2CCC4)CCC3)cc1CN1CCC1 [Example 49]
[B] CC(c1cc(S(=O)(=O)NC(=O)Nc2c3c(cc4c2CCC4)CCC3)nn1C)N1CCC1 (single isomer, unassigned; enantiomer 2) [Example 27]
Request: Would you mind telling me which has the lower recorded AUC between A and B ? // output: label of the selected item
Response: B

Reference source for all entries: patent US11542255B2
